Target: Fuc(a1-2)[Gal(a1-3)]Gal(b1-4)[Fuc(a1-3)]GlcNAc
Experiment: glycan array binding signal (z-score within array); higher = stronger binding
Conditions: glycan notation: IUPAC condensed, linker removed
Many of the other results were omitted from the sample, so the strongest signals are more common in it than they were.
glycan array binding signal (z-score) by entry:

>  <binder>
Pbx2CASH domain (Cryptococcus neoformans) (protein) GIPGPNRLYRLSGPIIFTAADQEIATYGYPTGSERAVLRVEGRNTATAIQGDCRRCARVSVKNLVVDGNRKKLGRMRDFQLATGLVVLGGNEGQSIQNSWIKNPRGFTAIHIREGDKLQCSGARVEKNEIGPVGEEYDPEKDGDDPEMSPLGRPLADGVSIACRDSFIRDNTFRDNTDAAIVVYCSPGTLIHA

>  <attribute measured>
glycan array binding signal (z-score)

>  <test result>
-0.331

$$$$

API: the following record is the query input.
Could you tell me which glycan array binding signal (z-score) is on file for NakA (Mycobacterium tuberculosum) (protein) SVVKPTKVTVFSPDGGADNPGEADLAIDGNPATSWKTDIYTDPVPFPSFKNGVGLMLQLPQATVVGTVAIDVASTGTKVEIRSASTPTPATLEDTAVLTSATALRPGHNTISVEAAAPTSNLLVWISTLGTTDGKSQADISEITIYAASD ?
2.29
